molecular target: Anti-CD28 Fab (SEQ ID NOs: 696, 697) (biotinylated (site not given)); assay: phage binding ELISA; biotinylated anti-CD28 Fab on neutravidin plate, clonal phage detected with anti-M13-HRP;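 further: crude clonal phage supernatants added briefly to wells preincubated in blocking buffer with or without CD28 antigen, then washed before detection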
Sequence (VH, as listed by the source, chain 1 of 2): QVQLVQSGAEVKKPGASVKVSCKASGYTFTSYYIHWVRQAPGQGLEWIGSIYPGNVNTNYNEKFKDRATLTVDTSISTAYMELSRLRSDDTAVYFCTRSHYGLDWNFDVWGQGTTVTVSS
Sequence (VL, as listed by the source, chain 2 of 2): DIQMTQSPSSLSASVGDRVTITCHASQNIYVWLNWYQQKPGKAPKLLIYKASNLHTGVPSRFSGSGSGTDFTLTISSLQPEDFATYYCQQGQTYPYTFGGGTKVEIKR
readout_type: Anti-CD28 Fab (SEQ ID NOs: 696, 697) signal

# binder, data_value
records = [
    ("TCAAGATYAWPECL [Phage-1400]", 2.08),
    ("WCKPGAPYKWPPCF [Phage-1389]", 2.14),
    ("TCSAGATWTWPQCL [Phage-1391]", 2.14),
    ("TCAAGAMYTWPLCF [Phage-1390]", 2.14),
]
